Test: NCI Yeast Anticancer Drug Screen. Data for the rad50 strain (AID 155);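 note: 0% = growth of vehicle-only cultures of the same strain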
Conditions: S. cerevisiae rad50 strain growth inhibition; at 11.0 µM; active compounds read high
The panel holds about 79,000 compounds, 15% with a hit somewhere; the sample as a whole holds those more often. The source made the active and inactive calls. Cut-off read from the data, not from the text of the source: active = growth inhibition above about 70%; inactive = the rest.
Overview of recorded growth inhibition for various compounds

| Compound | growth inhibition |
| --- | --- |
| CC(C)(C)c1ccc2c(c1)C(=O)c1ccccc1C2=O | -19% (inactive) |
| CC1=CN2C(c3ccccc3)=NON(c3ccc(C)cn3)C2C=C1 (stereo not drawn) | -6% (inactive) |
| O=C(/C(=C/c1ccc(O)cc1)c1ccccc1)c1ccccc1 | 53% (inactive) |
| O=C1C(=O)c2cccc([N+](=O)[O-])c2-c2ccccc21 | 55% (inactive) |
| CCCN=Cc1cc(Cc2ccc(O)c(C=NCCC)c2)ccc1O | 99% (active) |
| CS(=O)(=O)O.[Ag] | 99% (active) |
| O=C(/N=N/C(=O)Oc1ccccc1)Oc1ccccc1 | -107% (inactive) |
| CC(C)S(=O)(=O)/C=C\S(=O)(=O)C(C)C | 14% (inactive) |
| Nc1cc2ccccc2cc1N | -26% (inactive) |
| O=[N+]([O-])/C=C/c1cc2ccc3ccccc3c2[nH]1 | 78% (active) |
| O=C1SS(=O)c2ccccc21 (stereo not drawn) | 2% (inactive) |
| CCc1c(Cl)c(C)c(Cl)c(O)c1Cl | 6% (inactive) |
| Cc1ccc(NC(=O)CCC(=O)C(C)C(=O)c2ccccc2)c(C)c1 (stereo not drawn) | 3% (inactive) |

----------
Overview of recorded growth inhibition for various compounds
Test: NCI Yeast Anticancer Drug Screen. Data for the rad50EPP+ strain (AID 151);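 note: 0% = growth of vehicle-treated control cultures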
Settings: S. cerevisiae rad50 mutant strain, at 1.2 µM, active compounds read high
The panel holds about 79,000 compounds, 15% with a hit somewhere; the sample as a whole holds those more often. Calls of active or inactive are those of the source. No stated cut-off is given here; in the data, active means growth inhibition above about 70%; inactive means the rest.
Metric Name: growth inhibition

| Compound | Endpoint Value |
| --- | --- |
| CCN(CC)C(=S)SC(=S)N(CC)CC | -1% (inactive) |
| CCC1(O)C(=O)OCc2c1cc1n(c2=O)Cc2cc3c(N)cccc3nc2-1 (stereo unspecified) | -12% (inactive) |
| CCCCOc1ccc2nc(C)cc(N=[N+]=[N-])c2c1 | -1% (inactive) |
| CCC(OC(C)=O)C1CC(C(C)C)CCC1C (stereo unspecified) | 0% (inactive) |
| CCCCCCCN1C(=O)c2ccccc2C1=O | 0% (inactive) |
| CC/C(=C(\c1ccccc1)c1ccc(OCC[N+](C)(C)C)cc1)c1ccccc1 | 3% (inactive) |

----------
Experiment: NCI Yeast Anticancer Drug Screen. Data for the mgt1 strain (AID 153)
Settings: S. cerevisiae mgt1 mutant growth inhibition; at 11.0 µM; active compounds read high
Compounds without any hit were thinned out: in the full panel of roughly 79,000, 15% have a hit.
Please mark yes (1) if the recorded growth inhibition is equal to or greater than 10%, and no (0) if it falls below.

| Compound | Assigned Category |
| --- | --- |
| CC(C)[Si]1(C(C)C)OCC2OC(n3cnc4c(N)ncnc43)C(N)C2O[Si](C(C)C)(C(C)C)O1 (stereo not given) | yes (1) |
| COc1cc(C2C3=C(COC3=O)Oc3cc4c(cc32)OCO4)cc(OC)c1O (stereo not given) | yes (1) |
| CCCCCCCCCCCCOCCOCCOCC(N)=O | no (0) |
| CCN(CC)CCNc1ccc2nc(C)n3c4ccc(OC)cc4c(=O)c1c23 | yes (1) |
| O=C1C(=O)N(c2ccccc2)[C@@]2(c3ccccc3)C(=Nc3ccccc3)OC(c3ccccc3)=C12 | yes (1) |
| COc1ccccc1/C=C\C(=O)C1COCN1 (stereo not given) | no (0) |
| CC1(c2ccccc2)O[C@@H]2C[C@H]3[C@@H]4CCC5=CC(=O)C=C[C@]5(C)[C@@]4(F)[C@@H](O)C[C@]3(C)[C@]2(C(=O)CO)O1 (stereo not given in full) | no (0) |
| CC(CN(C)C)C(=O)/C=C/c1ccc(Cl)c(Cl)c1 (stereo not given) | yes (1) |
| O=C(CCSC1=NCCCN1)c1ccc(F)cc1 | no (0) |
| CCOP(=O)(OCC)/C(C#N)=C/c1cccc(Oc2ccccc2)c1 | yes (1) |
| COC(=O)C1=C(C(=O)OC)CC(n2nnc(C(=O)OC)c2C(=O)OC)=CC1 | no (0) |
| N#CSCC1COc2ccccc2O1 (stereo not given) | no (0) |
| O=C(CCCN1CCC(Nc2ccc(F)cc2)(c2nnnn2C2CCCCC2)CC1)c1ccc(F)cc1 | no (0) |
| CCCCS/C(=C(/C#N)C(N)=O)c1cc2c([nH]1)CCCC2 | no (0) |
| C[n+]1c(/C=C/c2ccc(/C=N/NC(=O)c3ccc(C(=O)N/N=C/c4ccc(/C=C/c5cn6ccccc6[n+]5C)cc4)cc3)cc2)cn2ccccc21 | yes (1) |
| NC(N)=NC(N)=Nc1ccccc1 (tested in a mixture with another compound) | no (0) |
| O=C(O)c1c2ccc(Cl)cc2nc2[nH]c(=O)[nH]c(=O)c12 | no (0) |
| Cc1ccnc2c(O)cccc12 | yes (1) |
| CC(C(=O)N1C(=O)N(C(=O)C(C)C(O)c2ccccc2)C2CCCCC21)C(O)c1ccccc1 (stereo not given) | no (0) |
| COc1ccc2cc(C(C)C(=O)N3CCOC3=O)ccc2c1 (stereo not given) | no (0) |
| O/N=c1/ccn(O)c2ccccc12 | yes (1) |
| O=[N+]([O-])c1ccc(S(=O)(=O)Cc2ccccc2)c([N+](=O)[O-])c1 | yes (1) |
| O=Cc1ccccc1C=O | yes (1) |
| Cc1cccc2c1C1c3c(C)cccc3C(CC(=O)O)CC1CC2 (stereo not given) | yes (1) |
| Clc1nc(Cl)nc(Nc2cccc3ccccc23)n1 | yes (1) |
| O=[N+]([O-])c1cccc2nc3ccccc3c(NCCCN3CCCCC3)c12 | yes (1) |
| COc1cc([N+](=O)[O-])c2ncccc2c1Br | no (0) |
| CCC(C)COC(=O)Nc1cccc(Cl)c1 (stereo not given) | no (0) |
| O=C1C(CCSc2ccccc2)C(=O)N(c2ccccc2)C1c1ccccc1 (stereo not given) | no (0) |
| CC1=CC(C)(C)SC(SSSC2=NC(C)=CC(C)(C)S2)=N1 | no (0) |
| CC(=O)NC(c1nc2cc(C)c(C)cc2[nH]1)c1nc2cc(C)c(C)cc2[nH]1 | yes (1) |
| c1ccc(-c2cc(C3CO3)c3ccccc3n2)cc1 (stereo not given) | no (0) |
| CN(C)CC(CN(C)C)C(=O)/C=C/c1ccc(Cl)cc1Cl | no (0) |
| COc1ccc(C2CC(C)(N3CCCC3)Oc3cc4c(cc32)OCO4)cc1 (stereo not given) | no (0) |
| CC(C)(Br)C(=O)/C=C/c1ccccc1 | no (0) |
| O=CC1(F)CC1(c1ccccc1)c1ccccc1 (stereo not given) | no (0) |
| OC(Cc1cccc2ccccc12)CN1CCC(c2ccccc2)CC1 (stereo not given) | yes (1) |
| CCOc1ccc(N)c(S)c1 | no (0) |
| COc1ccc(C(OCC2OC(n3cnc4c(=O)n(Cc5ccccc5[N+](=O)[O-])nnc43)C(O)C2O)(c2ccccc2)c2ccc(OC)cc2)cc1 (stereo not given) | yes (1) |
| Cc1ccccc1NC(=O)c1c(C)oc2c1C(=O)c1ccccc1C2=O | no (0) |
| CCOP(=O)(OCC)/C(C#N)=C/c1ccc(-c2ccc(F)cc2F)o1 | no (0) |
| CCCCCCCN(CCCCCCC)CC(=O)c1ccc2cc(Cl)c3ccccc3c2c1 | yes (1) |
| O=C(NC(N1CCN(c2cc3c(cc2F)c(=O)c(C(=O)O)cn3C2CC2)CC1)(C(F)(F)F)C(F)(F)F)c1ccccc1 | no (0) |
| CCOC(=O)Nc1ccc(C)c(NC(=O)OCC)c1 | yes (1) |
| CCCCCCCCCCCCCCCCCCN(C)C(COC)COP(=O)([O-])OCC[N+](C)(C)C (stereo not given) | yes (1) |

----------
Experiment: NCI Yeast Anticancer Drug Screen. Data for the rad50 strain (AID 155);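 note: 0% = growth of vehicle-only cultures of the same strain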
Settings: S. cerevisiae rad50 strain growth inhibition; at 50.0 µM (retest, dose inferred, filed as 5.0)
About 79,000 compounds went through this panel and 15% of them were active in at least one assay; those are over-represented in the sample as a whole. Active and inactive are the calls of the source. No stated cut-off is given here; in the data, active means growth inhibition above about 70%; inactive means the rest.
Classes used: YES = active, NO = inactive

| Compound | Assigned Category |
| --- | --- |
| Oc1ccc(N=Nc2ccc(Cl)cc2)cc1 | YES |
| O=C(O)c1cc2c(cc1S(=O)(=O)O)C1C(C3C2C2(Cl)C(Cl)=C(Cl)C3(Cl)C2(Cl)Cl)C2(Cl)C(Cl)=C(Cl)C1(Cl)C2(Cl)Cl (stereo unspecified) | YES |
| CCC1(O)C(=O)OCc2c1cc1n(c2=O)Cc2cc3c(N)cccc3nc2-1 (stereo unspecified) | YES |
| CC(C)C(c1ccccc1)c1ccccc1 | YES |
| Cc1c(C(=O)/C=C/c2ccccc2[N+](=O)[O-])[n+](=O)c2ccccc2n1[O-] | YES |
| CCN(CC)C(=S)SC(=S)N(CC)CC | NO |
| O=C(Cc1ccccc1)NNc1nc(NNC(=O)c2ccncc2)nc(Nc2ccc(Cl)cc2)n1 | NO |
| O=C(Nn1c(-c2ccccc2)nc2ccccc2c1=O)c1ccc(CS)cc1 | NO |
| CCOC(=O)/C(=C\c1cccc(C)c1)C(C)=O | YES |
| CC(C)OC(=O)NNc1cc(Cl)ccc1Cl | NO |
| CC1=CC(=C(c2ccc(N)c(C)c2)c2ccc(N)c(C)c2)C=CC1=N | YES |

meta.source: PubChem BioAssay (NCI)
